Kindly state pEC50 for each of the entries shown.
# SUBJECT_OF_TEST: T1, TRCW5 antigen (CD3δε-Fc-Avi) (biotinylated (site not stated))
# T1 construct: also called recombinant CD3
# ASSAY_TEXT: ELISA
pEC50 field: float, defined as -log10 of concentration (mol/L).

Using the record for CD3B2030 N106G (scFv) scFv: QVQLVQSGAEVKKPGSSVKVSCKASGYTFTRSTMHWVKQAPGQGLEWIGYINPSSAYTNYNQKFQGRVTLTADKSTSTAYMELSSLRSEDTAVYYCASPQVHYDYGGFPYWGQGTLVTVSSGGSEGKSSGSGSESKSTGGSEIVLTQSPATLSASPGERVTLSCSASSSVSYMNWYQQKPGQAPRRWIYDSSKLASGVPARFSGSGSGRDYTLTISSLEPEDFAVYYCQQWSRNPPTFGGGTKVEIK , report its pEC50.
7.85

Using the record for CD3B2089 G107V (scFv) scFv: QVQLVQSGAEVKKPGSSVKVSCKASGYTFTRSTMHWVRQAPGQGLEWMGYINPSSAYTNYAQKFQGRVTLTADKSTSTAYMELSSLRSEDTAVYYCASPQVHYDYNVFPYWGQGTLVTVSSGGSEGKSSGSGSESKSTGGSEIVLTQSPATLSASPGERVTLSCSASSSVSYMNWYQQKPGQAPRRWIYDSSKLASGVPARFSGSGSGRDYTLTISSLEPEDFAVYYCQQWSRNPPTFGGGTKVEIK , report its pEC50.
7.76
